- subject_of_test: UniProt P12821
- Sequence (P12821 whole entry): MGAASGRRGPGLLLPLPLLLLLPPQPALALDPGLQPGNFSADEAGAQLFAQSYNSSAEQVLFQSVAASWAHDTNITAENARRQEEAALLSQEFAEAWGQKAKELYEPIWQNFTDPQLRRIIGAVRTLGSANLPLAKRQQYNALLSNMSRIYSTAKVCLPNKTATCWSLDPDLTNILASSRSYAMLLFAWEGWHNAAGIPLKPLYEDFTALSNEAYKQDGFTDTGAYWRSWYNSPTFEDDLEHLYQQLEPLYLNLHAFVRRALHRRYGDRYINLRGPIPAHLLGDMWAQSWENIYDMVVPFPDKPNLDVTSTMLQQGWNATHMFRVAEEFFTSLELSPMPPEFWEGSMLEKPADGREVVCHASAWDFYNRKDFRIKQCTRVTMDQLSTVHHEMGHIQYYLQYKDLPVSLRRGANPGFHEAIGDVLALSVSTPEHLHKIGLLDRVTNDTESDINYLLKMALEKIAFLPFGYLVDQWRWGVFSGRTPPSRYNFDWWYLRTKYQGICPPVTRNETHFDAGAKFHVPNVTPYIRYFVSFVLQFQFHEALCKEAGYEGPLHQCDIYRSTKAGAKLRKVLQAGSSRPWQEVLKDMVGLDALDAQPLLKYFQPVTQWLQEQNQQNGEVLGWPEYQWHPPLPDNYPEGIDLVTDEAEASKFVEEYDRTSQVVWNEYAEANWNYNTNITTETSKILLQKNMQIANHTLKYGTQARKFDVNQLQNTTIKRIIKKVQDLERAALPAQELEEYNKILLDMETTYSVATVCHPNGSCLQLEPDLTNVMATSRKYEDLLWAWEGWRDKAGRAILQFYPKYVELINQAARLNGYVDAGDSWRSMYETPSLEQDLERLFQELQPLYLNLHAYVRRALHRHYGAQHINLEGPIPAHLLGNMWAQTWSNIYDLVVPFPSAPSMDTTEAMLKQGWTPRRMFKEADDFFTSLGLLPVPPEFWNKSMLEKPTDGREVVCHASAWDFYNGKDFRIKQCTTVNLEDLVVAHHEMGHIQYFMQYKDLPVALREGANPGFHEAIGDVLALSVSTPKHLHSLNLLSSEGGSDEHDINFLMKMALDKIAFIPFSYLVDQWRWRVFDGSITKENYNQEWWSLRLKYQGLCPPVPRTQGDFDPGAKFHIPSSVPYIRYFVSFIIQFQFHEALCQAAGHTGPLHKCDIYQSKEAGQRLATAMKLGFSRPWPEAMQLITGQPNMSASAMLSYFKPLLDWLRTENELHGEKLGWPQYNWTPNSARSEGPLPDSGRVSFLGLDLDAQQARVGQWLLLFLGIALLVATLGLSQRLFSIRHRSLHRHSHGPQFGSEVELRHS
- assay_comment: Inhibition of ACE (unknown origin)
- Design: unit not given here
Residues, ends and D or L forms follow the SMILES beside them.
test_readout: logIC50

Known logIC50 results, listed for orientation:
compound	test_readout	result_number
C[C@@H](O)[C@H](N)C(=O)N1CCC[C@H]1C(=O)O (H-Thr-Pro-OH)	logIC50	2.46
C[C@H](NC(=O)[C@H](Cc1c[nH]c2ccccc12)NC(=O)CN)C(=O)N1CCC[C@H]1C(=O)O (H-GWAP-OH)	logIC50	0.59
CC(C)C[C@H](N)C(=O)N[C@@H](CC(N)=O)C(=O)N1CCC[C@H]1C(=O)O (H-Leu-Asn-Pro-OH)	logIC50	1.76
C[C@H](N)C(=O)N[C@@H](Cc1ccccc1)C(=O)O	logIC50	1.88
NCC(=O)N[C@@H](CCC(=O)O)C(=O)N1CCC[C@H]1C(=O)O (H-Gly-Glu-Pro-OH)	logIC50	2.51
CC(C)C[C@H](N)C(=O)N[C@@H](CCC(N)=O)C(=O)N1CCC[C@H]1C(=O)O (H-Leu-Gln-Pro-OH)	logIC50	0.28
C[C@@H](O)[C@H](N)C(=O)N[C@@H](CC(N)=O)C(=O)N1CCC[C@H]1C(=O)O (H-Thr-Asn-Pro-OH)	logIC50	2.32
CSCC[C@H](N)C(=O)N[C@@H](CC(N)=O)C(=O)N1CCC[C@H]1C(=O)O (H-Met-Asn-Pro-OH)	logIC50	1.82

a. N[C@@H](Cc1ccccc1)C(=O)N[C@@H](Cc1ccc(O)cc1)C(=O)O (H-Phe-Tyr-OH)
b. CC(C)[C@H](N)C(=O)N[C@@H](Cc1ccc(O)cc1)C(=O)N1CCC[C@H]1C(=O)O (H-Val-Tyr-Pro-OH)
In: Form: Entry with minimum logIC50 (choose one): a / b Please respond with the label that marks your chosen entry.
Out: a
(a: 1.4, b: 2.46)

1. NC(=O)C[C@H](N)C(=O)N[C@@H](Cc1ccc(O)cc1)C(=O)O (H-Asn-Tyr-OH)
2. CC(C)[C@H](N)C(=O)N[C@@H](CO)C(=O)N1CCC[C@H]1C(=O)O (H-Val-Ser-Pro-OH)
3. CC(C)C[C@H](NC(=O)[C@@H](N)CC(=O)O)C(=O)N1CCC[C@H]1C(=O)O (H-Asp-Leu-Pro-OH)
In: Hi! Can you put these in order of logIC50, lowest number first? A complete answer lists every label in the requested sequence.
Out: 3, 2, 1

---

- System: Pseudomonas aeruginosa
- assay_comment: antimicrobial activity against Pseudomonas aeruginosa
test_readout: pIC50

substance	result_number
H-RIKRWWWWR-OH	6.51

1. H-RWWRKWWIR-OH
2. H-RWILWWWRI-OH
In: Just curious, which one has the larger pIC50 reading, 1 or 2 ? Please respond with the label that marks your chosen entry.
Out: 1

---

- subject_of_test: Angiotensin-converting enzyme (Homo sapiens)
- assay_comment: Inhibition of ACE (unknown origin)
- Set-up: unit not given here
test_readout: logIC50

Known logIC50 results, listed for orientation:
substance	subject_of_test	logIC50
H-LHLWLP-OH	Angiotensin-converting enzyme (Homo sapiens)	0.95
H-LHLPAP-OH	Angiotensin-converting enzyme (Homo sapiens)	0.78
H-LHLPYP-OH	Angiotensin-converting enzyme (Homo sapiens)	0.36

1. H-LHLPGP-OH
2. H-LHLPLP-OH
3. H-LHLYLP-OH
In: Order field: logIC50 | Direction: descending (largest first) A complete answer lists every label in the requested sequence.
Out: 3, 2, 1

P. H-LAYFYP-OH
Q. H-VRGPFP-OH
In: Just curious, which one has the larger logIC50 reading, P or Q ? Please respond with the label that marks your chosen entry.
Out: Q
